Data origin: patent US20080027117A1

molecular target: CYP 2A6 (Homo sapiens, UniProt P11509); experiment: Hepatic toxicity: Coumarin 7-hydroxylase in human hepatic microsomes
For each of the molecules below, state its IC50.

The molecule listed as CC(=O)N1CCN(c2ccc(OCC3COC(Cn4ccnc4)(c4ccc(Cl)cc4Cl)O3)cc2)CC1 (centres unmarked) [ketoconazole, reference compound] shows IC50 equal to > 100 µM

The molecule listed as OC(Cn1cncn1)(Cn1cncn1)c1ccc(F)cc1F [Fluconazole, reference compound] shows IC50 equal to > 100 µM

* * *

For each of the molecules below, state its pIC50.
Biological target: CYP 1A2 (Homo sapiens)
Test: Hepatic toxicity: Phenacetin O-deethylase in human hepatic microsomes
Settings: microsomes
Procedure: After incubating at 37° C. for 20 min, 200 μl of each resulting solution was mixed with 100 μl of acetonitrile, and analyzed with LC-MS (LC column: Luna2 C8, 2×100 mm, flow velocity: 0.2 ml/min, MS system: Quattro LC (micromass)) using a 5% MeOH aqueous solution containing 0.1% formic acid as an eluent.
pIC50: −log10 of the molar value.

The measured pIC50 that CC(n1cnc(-c2ccc(OC(F)=Cc3ccc(Cl)cc3)cc2)n1)C(O)(Cn1cncn1)c1ccc(F)cc1F (stereo not drawn) showed for CYP 1A2 (Homo sapiens) is < 4.00

The measured pIC50 that CC(n1ccn(-c2ccc(OC(F)=C(c3ccc(Cl)cc3)C(F)(F)F)cc2)c1=O)C(O)(Cn1cncn1)c1ccc(F)cc1F (mixture of isomers) showed for CYP 1A2 (Homo sapiens) is < 4.00

The measured pIC50 that CC(N1CCN(c2ccc(OC(F)=Cc3cccc(Cl)c3)cc2)C1=O)C(O)(Cn1cncn1)c1ccc(F)cc1F (mixture of isomers) showed for CYP 1A2 (Homo sapiens) is < 4.00

* * *

For each of the molecules below, state its IC50.
Molecular target: CYP 2C8 (Homo sapiens, UniProt P10632)
Sequence (P10632 1-490): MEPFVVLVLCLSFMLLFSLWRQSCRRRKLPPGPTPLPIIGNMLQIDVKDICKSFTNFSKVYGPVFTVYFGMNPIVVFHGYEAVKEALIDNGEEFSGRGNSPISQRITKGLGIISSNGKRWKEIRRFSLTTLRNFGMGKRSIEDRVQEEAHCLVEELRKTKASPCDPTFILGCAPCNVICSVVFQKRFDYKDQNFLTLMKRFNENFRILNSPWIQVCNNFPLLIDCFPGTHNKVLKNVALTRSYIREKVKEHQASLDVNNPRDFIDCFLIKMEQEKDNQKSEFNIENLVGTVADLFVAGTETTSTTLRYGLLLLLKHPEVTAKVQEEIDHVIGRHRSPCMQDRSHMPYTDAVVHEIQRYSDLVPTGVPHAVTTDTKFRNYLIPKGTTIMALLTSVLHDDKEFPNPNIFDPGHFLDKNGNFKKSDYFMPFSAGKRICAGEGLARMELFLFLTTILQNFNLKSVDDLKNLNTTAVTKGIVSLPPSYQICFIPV
Experiment: Hepatic toxicity: Paclitaxel 6 α-hydroxylase in human hepatic microsomes
Conditions: microsomes
Provide the reading as a plain figure in µM.

The molecule listed as CC(n1ccn(-c2ccc(OC(F)=C(c3ccc(Cl)cc3)C(F)(F)F)cc2)c1=O)C(O)(Cn1cncn1)c1ccc(F)cc1F (mixture of isomers) [Example 121] shows IC50 equal to 41.2

The molecule listed as CC(n1cnc(-c2ccc(OC(F)=Cc3ccc(Cl)cc3)cc2)n1)C(O)(Cn1cncn1)c1ccc(F)cc1F (stereo not drawn) [Example 40] shows IC50 equal to 30.1

* * *

tested on: Candida krusei ATCC 6258; assay: In vitro antifungal activity, microbroth dilution (MIC80); assay type: cell-based; settings: lowest concentration reducing growth by 80% relative to untreated control; RPMI-1640, 35° C.
assayMetric: MIC Range (MIC80) Candida krusei ATCC 6258 (µg/mL)
Provide the reading as a plain figure in µg/mL.

The measured MIC Range (MIC80) Candida krusei ATCC 6258 that C[C@@H]1[C@H](O)[C@@H](C)/C=C/C=C/C=C/C=C/C=C/C=C/C=C/[C@H](O[C@@H]2O[C@H](C)[C@@H](O)[C@H](N)[C@@H]2O)C[C@@H]2O[C@](O)(C[C@@H](O)C[C@@H](O)[C@H](O)CC[C@@H](O)C[C@@H](O)CC(=O)O[C@H]1C)C[C@H](O)[C@H]2C(=O)O [Amphotericine B, reference compound] showed for Candida krusei ATCC 6258 is 1

* * *

biological target: CYP 2C8 (Homo sapiens); assay: Hepatic toxicity: Paclitaxel 6 α-hydroxylase in human hepatic microsomes
assayMetric: IC50

The measured IC50 that OC(Cn1cncn1)(Cn1cncn1)c1ccc(F)cc1F [Fluconazole, reference compound] showed for CYP 2C8 (Homo sapiens) is > 100 µM

* * *

target: CYP 1A2 (Homo sapiens, UniProt P05177); assay: Hepatic toxicity: Phenacetin O-deethylase in human hepatic microsomes
Sequence (P05177 whole entry): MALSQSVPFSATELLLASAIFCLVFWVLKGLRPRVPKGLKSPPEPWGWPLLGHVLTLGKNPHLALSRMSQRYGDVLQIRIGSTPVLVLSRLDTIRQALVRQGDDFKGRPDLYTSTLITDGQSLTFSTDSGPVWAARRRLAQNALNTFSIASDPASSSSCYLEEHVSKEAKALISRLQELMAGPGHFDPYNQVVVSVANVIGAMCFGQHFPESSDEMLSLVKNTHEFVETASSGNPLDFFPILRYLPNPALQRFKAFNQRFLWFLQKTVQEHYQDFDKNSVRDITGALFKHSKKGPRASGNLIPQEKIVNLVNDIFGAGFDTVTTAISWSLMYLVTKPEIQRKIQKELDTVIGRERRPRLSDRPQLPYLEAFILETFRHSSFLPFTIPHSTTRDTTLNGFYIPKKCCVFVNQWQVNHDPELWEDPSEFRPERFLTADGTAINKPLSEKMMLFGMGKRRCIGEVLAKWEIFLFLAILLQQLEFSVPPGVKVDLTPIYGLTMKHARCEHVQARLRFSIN
pIC50: −log10 of the molar value.
assayMetric: pIC50

The molecule listed as OC(Cn1cncn1)(Cn1cncn1)c1ccc(F)cc1F [Fluconazole, reference compound] shows pIC50 equal to < 4.00

* * *

test system: Candida krusei ATCC 6258; assay: In vitro antifungal activity, microbroth dilution (MIC80); format: cell-based; settings: lowest concentration reducing growth by 80% relative to untreated control; RPMI-1640, 35° C.
For each of the molecules below, state its MIC Range (MIC80) Candida krusei ATCC 6258.

The molecule listed as CC(OC(F)=Cc1ccc(Oc2ccccc2)cc1)C(O)(Cn1cncn1)c1ccc(F)cc1F (stereo not drawn) [Example 15] shows MIC Range (MIC80) Candida krusei ATCC 6258 equal to 4 µg/mL

The molecule listed as OC(Cn1cncn1)(Cn1cncn1)c1ccc(F)cc1F [Fluconazole, reference compound] shows MIC Range (MIC80) Candida krusei ATCC 6258 equal to 32~64 μg/ml

The molecule listed as COc1cccc(C(=C(F)OC(C)C(O)(Cn2cncn2)c2ccc(F)cc2F)C(F)(F)F)c1 (stereo not drawn) [Example 13] shows MIC Range (MIC80) Candida krusei ATCC 6258 equal to >64 µg/mL

* * *

For each of the compounds below, state its IC50.
Target: UniProt P11509
Sequence (P11509 1-494): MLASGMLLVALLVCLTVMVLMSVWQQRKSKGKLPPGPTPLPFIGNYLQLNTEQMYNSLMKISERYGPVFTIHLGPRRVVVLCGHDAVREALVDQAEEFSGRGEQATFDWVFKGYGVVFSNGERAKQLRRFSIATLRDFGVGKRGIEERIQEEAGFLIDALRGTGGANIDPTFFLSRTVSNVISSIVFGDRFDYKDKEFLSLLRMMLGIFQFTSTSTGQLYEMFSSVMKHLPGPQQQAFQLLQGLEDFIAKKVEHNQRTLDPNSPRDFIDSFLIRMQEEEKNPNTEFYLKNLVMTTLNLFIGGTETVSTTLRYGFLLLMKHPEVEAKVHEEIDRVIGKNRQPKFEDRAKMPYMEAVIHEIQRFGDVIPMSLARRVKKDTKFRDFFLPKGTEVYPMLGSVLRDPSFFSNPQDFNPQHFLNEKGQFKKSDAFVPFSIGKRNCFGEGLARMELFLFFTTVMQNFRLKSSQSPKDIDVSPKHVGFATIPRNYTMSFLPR
Experiment: Hepatic toxicity: Coumarin 7-hydroxylase in human hepatic microsomes
Conditions: microsomes

The measured IC50 that CC(n1cnc(-c2ccc(OC(F)=Cc3ccc(Cl)cc3)cc2)n1)C(O)(Cn1cncn1)c1ccc(F)cc1F (stereo not drawn) showed for UniProt P11509 is > 100 µM

The measured IC50 that CC(n1ccn(-c2ccc(OC(F)=C(c3ccc(Cl)cc3)C(F)(F)F)cc2)c1=O)C(O)(Cn1cncn1)c1ccc(F)cc1F (mixture of isomers) showed for UniProt P11509 is > 100 µM

The measured IC50 that CC(N1CCN(c2ccc(OC(F)=Cc3cccc(Cl)c3)cc2)C1=O)C(O)(Cn1cncn1)c1ccc(F)cc1F (mixture of isomers) showed for UniProt P11509 is > 100 µM
